- Assay System: Papain (Carica papaya, UniProt P00784)
- Sequence (P00784 134-345): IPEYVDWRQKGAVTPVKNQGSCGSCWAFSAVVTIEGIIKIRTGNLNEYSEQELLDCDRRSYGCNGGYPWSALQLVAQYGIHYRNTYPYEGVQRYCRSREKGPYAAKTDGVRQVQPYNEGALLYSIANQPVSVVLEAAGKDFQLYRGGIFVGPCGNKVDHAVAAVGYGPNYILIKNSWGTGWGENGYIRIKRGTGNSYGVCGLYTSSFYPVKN
- Test Name: Enzyme activity assay, hydrolytic activity of Papain
- Format: biochemical
Measurement Kind: IC50 (µM)
Numbers only, in µM.

Query: Which IC50 is listed for O=C(O)c1ccccc1-c1c2cc(Br)c(=O)cc-2oc2[c]([Hg+])c(O)c(Br)cc12 ?
Response: 8.03

----------
- Assay System: 3CLpro (Severe acute respiratory syndrome coronavirus 2, UniProt P0DTD1)
- Test Name: biochemical
- Assay type: binding, SARS-CoV-2
Measurement Kind: Kd
State the result as a value with its unit after it.

Query: Which Kd is listed for O=C(O)c1ccccc1-c1c2cc(Br)c(=O)cc-2oc2[c]([Hg+])c(O)c(Br)cc12 [Merbromin] ?
Response: 11.8 µM
